- Tested on: MS2 coat protein
- Protocol Text: apparent KD of MS2 coat protein, switch ON state; designed switch direction (-1 OFF switch, 1 ON switch): -1; higher = weaker reporter binding
- Run Conditions: FMN input: 0 or 200 uM; Eterna round: R93 (includes R88 designs)
Entries and their measured apparent KD of MS2 coat protein follow.
Measurement Label: apparent KD of MS2 coat protein (nM)

- Entry Sequence: "AACAGACAUGAGGAUCACCCAUGUGAGGAUAUGGCAAUCGAUAGAACUAGAAUGACAACCAGAAGGCACAGCAA [JR_Exc001_Sub004]"
  Measurement Target: "MS2 coat protein"
  Measurement Label: "apparent KD of MS2 coat protein"
  Measurement Units: "nM"
  Recorded Result: 77.6
- Entry Sequence: "ACAAGCCUAGGAUAUACAUGAGGAUCACCCAUGUGAAAGAACCGGUGACUCCUGGAAAGUAGAAGGAGGAAUCG [Biatla]"
  Measurement Target: "MS2 coat protein"
  Measurement Label: "apparent KD of MS2 coat protein"
  Measurement Units: "nM"
  Recorded Result: 44.7
- Entry Sequence: "AAGAAGUCAGGAUAUGCCAAAGAUCACGAAAGUGACAAAGGGCAGAAGGGACAUGAGGAUCACCCAUGUAAAGA [Opal 3]"
  Measurement Target: "MS2 coat protein"
  Measurement Label: "apparent KD of MS2 coat protein"
  Measurement Units: "nM"
  Recorded Result: 54.7
- Entry Sequence: "AAAAAGGGAGGAUAUGCAAAGGGAAAGGGAAAGGGAAAGGGACAUGAGGAUCACCCAUGUAGAAGGCUCAAAAA [scarecrow2]"
  Measurement Target: "MS2 coat protein"
  Measurement Label: "apparent KD of MS2 coat protein"
  Measurement Units: "nM"
  Recorded Result: 56.1
- Entry Sequence: "AAAAAACAUGAGGAUCACCCAUGUAAGGAUAUCUAAAAUAAAAGAAAAAUAAAGAAAAGGAGAAGGUACAUGCA [JL wbt mod 26]"
  Measurement Target: "MS2 coat protein"
  Measurement Label: "apparent KD of MS2 coat protein"
  Measurement Units: "nM"
  Recorded Result: 32
- Entry Sequence: "AACAGUACAGGAUAUACAUGAGGAUCACCCAUGUGAAAAUUAAGUGGCGUACCACAAUGUAGAAGGGUACUGAA [Mat - Exclusion 3 - Eli mod - D46]"
  Measurement Target: "MS2 coat protein"
  Measurement Label: "apparent KD of MS2 coat protein"
  Measurement Units: "nM"
  Recorded Result: 103
- Entry Sequence: "AAGAGGCUAGGAUAUACAUAUCUGAUGACUCAUCCUAAAACACAUGAGGAUCACCCAUGUAGAAGGAGCGAAUG [Anledi]"
  Measurement Target: "MS2 coat protein"
  Measurement Label: "apparent KD of MS2 coat protein"
  Measurement Units: "nM"
  Recorded Result: 19.2

---

- System: MS2 coat protein
- Protocol Text: apparent KD of MS2 coat protein; designed switch direction (-1 OFF switch, 1 ON switch): -1; higher = weaker reporter binding
- Run Conditions: Eterna round: R95; input ligand: microRNA oligo, concentration not stated
Entries and their measured apparent KD of MS2 coat protein follow.

- Entry Sequence: "AUUGAUGUUGAGGAUAUGCUUUUAUUUAUAAUAGCAGAAGGCGAUACAUGAGGAUCACCCAUGUUCAUGGUAGU [JR_E6_Sub095] (puzzle: Exclusion 6)"
  apparent KD of MS2 coat protein (µM): 0.0504
- Entry Sequence: "GCAGGAUAAGUGAGGAUAUACCUCUGGAUACAGAGGUAGAAGGCACAUGAGGAUCACCCAUGUCAUUCACCUGC [Fiskers BMX 4 - 77] (puzzle: Brourd's mod of Exclusion 4)"
  apparent KD of MS2 coat protein (µM): 0.0144
- Entry Sequence: "CAUCUGUGAGGAUAUGGUGAGUAGUGCCUGAGCGCUGCUCACCAGAAGGCACAUGAGGAUCACCCAUGUAUGAA [Mat - Exclusion 4 - Mod of JL - D1] (puzzle: Exclusion 4)"
  apparent KD of MS2 coat protein (µM): 0.0469
- Entry Sequence: "GUUAGUUAAGGAUAUACUGGGAGCUGCGGCGUCUCGCCGCAACAUGAGGAUCACCCAUGUAGAAGGUGGCCAUU [JL ViennaUCT Enbibi mod 4] (puzzle: Exclusion 2)"
  apparent KD of MS2 coat protein (µM): 0.64
- Entry Sequence: "CGAACCCGAGGAUAUCGUAAACCCGACAUGAGGAUCACCCAUGUCAUCCUCACGGCGCCACGAGAAGGCGGUGUUU [Leinat] (puzzle: Exclusion 5)"
  apparent KD of MS2 coat protein (µM): 0.0437

---

- Test system: MS2 coat protein
- Protocol Text: apparent KD of MS2 coat protein; designed switch direction (-1 OFF switch, 1 ON switch): -1; higher = weaker reporter binding
- Run Conditions: Eterna round: R95; input ligand: FMN 200 uM
Use 1 (yes) when the recorded apparent KD of MS2 coat protein is no lower than 60 nM; use 0 (no) when it is lower.

- Entry Sequence: "AAUAAGCUAGGAUAUACAUGAGGAUCACCCAUGUGAGGGCACCGCCGGCGCGGGCCCGGUAGAAGGAGUCAUAA [Exc;s3-V] (puzzle: Exclusion 3)"
  Category Label: "0 (no)"
- Entry Sequence: "CCGGCUUAGGAGGAUAUAGGAGUCGAUAGACACCUAGAAGGCCUGACAUGAGGAUCACCCAUGUGUCCUACCGG [Fiskers Ex 6 - 98] (puzzle: Exclusion 6)"
  Category Label: "0 (no)"
- Entry Sequence: "ACACAAGCCCUUUGCUCGUUUUAAUACAGCGGGCUCUUCACAUGAGGAUCACCCAUGUAGGCCUUGUUCCAAGGCCG [Rebileve] (puzzle: Sensor v3, turn-off variant 2)"
  Category Label: "0 (no)"
- Entry Sequence: "AGUGCUGGCGCGUCGGUGUUGGUGCAAUAAGCUUGUGAAACAUGAGGAUCACCCAUGUCCUCAUAAGCUCGUCUUAU [salish99_TOv2_r2_085] (puzzle: Sensor v3, turn-off variant 2)"
  Category Label: "0 (no)"
- Entry Sequence: "UGUACGAUGCGUGCUGACAUGCGUCGUGCAGCAGGUGAUACAUGAGGAUCACCCAUGUCCUCAUUUGCUCGUCUAGU [Mat - Sensor v3 - Turn-off var 2 - D24] (puzzle: Sensor v3, turn-off variant 2)"
  Category Label: "1 (yes)"
- Entry Sequence: "CAUGGGUGUGAGCCGCAUUACAUGAGGAUCACCCAUGUCAACAAGCUUUUUGCUUGUCUUACGCGGCGGCACCAAAA [Bimaus] (puzzle: Sensor v3, turn-off variant 1)"
  Category Label: "0 (no)"
- Entry Sequence: "AAGUACCGUCACGAUAGUGAUGGUACAACAAGCAUGUAAACAUGAGGAUCACCCAUGUCCUCGAAUGCUCGUCUUAU [Sensor 3 - 66] (puzzle: Sensor v3, turn-off variant 2)"
  Category Label: "1 (yes)"
- Entry Sequence: "GAGAAGGUAGGAUAUACGAAUAAAUAGGGUAGUAAGAAGACACAUGAGGAUCACCCAUGUAGAAGGACCAAGAG [Mat - Exclusion 2 - Mod of my Tesla design - D37] (puzzle: Exclusion 2)"
  Category Label: "0 (no)"
- Entry Sequence: "GGUACUAUCACCUGAGUGGUAGUGCCACAAGCUUGUGAUACAUGAGGAUCACCCAUGUCCUCAUUUGCUCGUCUUAU [JL-sv3-2.28 JL mod] (puzzle: Sensor v3, turn-off variant 2)"
  Category Label: "1 (yes)"
- Entry Sequence: "CUCGUGGUGAAGGAUAUCCGCGAGAAAAUAAAAGGAGAAGGUCACACAUGAGGAUCACCCAUGUGAUGAAGAAA [Anesanza] (puzzle: Exclusion 6)"
  Category Label: "0 (no)"
- Entry Sequence: "GCAGUGCGAGGAUAUACAUGAGGAUCACCCAUGUGAGAAGAAUAAGUGAGGAAGAAAAGUAGAAGGCGCGUUGG [Mat - Exclusion 3 - Mod of Salish D68] (puzzle: Exclusion 3)"
  Category Label: "1 (yes)"
- Entry Sequence: "UAGUGGUUACGUUGGAGUUGUAUGAGCGGAGGCUCUGUGACAUGAGGAUCACCCAUGUAGCUUUUUGCUCGUCUUAA [JR_SV3TOV2_Sub039] (puzzle: Sensor v3, turn-off variant 2)"
  Category Label: "0 (no)"
- Entry Sequence: "GGGAAACAUGAGGAUCACCCAUGUAAGGAUAUGCAAAAGGAUAUAGAAGGAAAAAAAAGCAGAAGGUACAAAGG [salish99-ex1_r3_100] (puzzle: Exclusion 1)"
  Category Label: "1 (yes)"
- Entry Sequence: "GAAAAGGUAGGAUAUACGAAAAAGAAGGGUAGAAAAAAAACACAUGAGGAUCACCCAUGUAGAAGGACCAAAAG [salish99_ex2_r3_026] (puzzle: Exclusion 2)"
  Category Label: "0 (no)"
- Entry Sequence: "CGUGACUGAGGAUAUCUAUAAUAUCACAUGAGGAUCACCCAUGUCCAGCGAAAGCUGGAAGGAGAAGGCAGUCACG [Fiskers Ex 5 - 34] (puzzle: Exclusion 5)"
  Category Label: "0 (no)"
- Entry Sequence: "AAAGAAGAGAGAAAAUAACACAUGAGGAUCACCCAUGUGCGAUGUUGAGGGUGAUACAGGCUUUUUGCUCGUCUUAU (puzzle: Sensor v3, turn-off variant 1)"
  Category Label: "1 (yes)"
- Entry Sequence: "AGUACUAACACGGGAGUGUUAGUACAAUAAGCUUGUGAAACAUGAGGAUCACCCAUGUCCUCAUAAGCUCGUCUUAU [salish99_TOv2_r3_060] (puzzle: Sensor v3, turn-off variant 2)"
  Category Label: "0 (no)"
- Entry Sequence: "AGUUGGCGAGGAUAUACAUGAGGAUCACCCAUGUGAGAGAAAAAAGUGAGGAAGAAAAGUAGAAGGCGCUGACA [salish99_ex3_r3_038] (puzzle: Exclusion 3)"
  Category Label: "1 (yes)"
